- target_desc: MaxL homodimer (Homo sapiens, UniProt P61244 1-160)
- Sequence (P61244 whole entry): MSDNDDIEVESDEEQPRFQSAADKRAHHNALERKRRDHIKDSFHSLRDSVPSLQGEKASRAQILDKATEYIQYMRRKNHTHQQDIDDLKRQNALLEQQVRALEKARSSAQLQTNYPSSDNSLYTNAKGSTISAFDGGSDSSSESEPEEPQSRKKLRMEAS
- protocol_summary: universal protein-binding microarray (PBM); PBS-based mixture, 10 nM His-tagged protein dimer, 2% milk, 200 ng/uL BSA, 50 ng/uL salmon testes DNA, 0.02% TX-100; detection with Alexa 488 anti-His antibody;; high values mean tight binding;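 further: fluorescence intensity normalized to that of the highest-ranked 8-mer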
- assay_setup: protein: recombinant; tags: C-terminal His-tag (pET21a); chain copies: 2; dsDNA, one strand shown
Over roughly 33,000 sequences, “normalized occupancy” has its median near 0.075; the highest 2% begin near 0.095. Only a selection was taken, and the highest values are over-represented in it overall.
measured_quantity: binding signal (normalized occupancy)
Please state the figure in normalized occupancy; there is no need to write the unit.

Checklist item: binding signal tested on MaxL homodimer (Homo sapiens, UniProt P61244 1-160), entry `CACGTGCC` , value?
0.521

Which measured binding signal belongs to `AACGTGCA` , tested on MaxL homodimer (Homo sapiens, UniProt P61244 1-160)?
0.109

Missing value: binding signal, MaxL homodimer (Homo sapiens, UniProt P61244 1-160), entry `ACAATGAA` . Fill in?
0.0787

Param readout = binding signal; param system = MaxL homodimer (Homo sapiens, UniProt P61244 1-160); param query = `AACGTCCA` ; response: value
0.0778

Can you look up binding signal on MaxL homodimer (Homo sapiens, UniProt P61244 1-160) for `AGCACGCG` ?
0.156

Hi! What's the reported binding signal for `CACGTACC` on MaxL homodimer (Homo sapiens, UniProt P61244 1-160)?
0.0843

Value wanted: binding signal (MaxL homodimer (Homo sapiens, UniProt P61244 1-160)) of entry `CCGTGGCC`
0.0738

State its binding signal on MaxL homodimer (Homo sapiens, UniProt P61244 1-160): `AGGGTGGA`
0.074

Record `CGGTACAC` : what is its binding signal with MaxL homodimer (Homo sapiens, UniProt P61244 1-160)?
0.0815

Notebook: pull reported binding signal for MaxL homodimer (Homo sapiens, UniProt P61244 1-160), entry `AACGTTCA`
0.0836

Query binding signal on MaxL homodimer (Homo sapiens, UniProt P61244 1-160) for `CCAGGTCG`
0.0731

Hi! What's the reported binding signal for `CCTTGTCC` on MaxL homodimer (Homo sapiens, UniProt P61244 1-160)?
0.0743

Missing value: binding signal, MaxL homodimer (Homo sapiens, UniProt P61244 1-160), entry `AGCAATTC` . Fill in?
0.0722

What reported binding signal corresponds to `CGCGTGGA` on MaxL homodimer (Homo sapiens, UniProt P61244 1-160)?
0.147

Request - read-out binding signal | tested on MaxL homodimer (Homo sapiens, UniProt P61244 1-160) | sequence `CGCACGCG`
0.121

What binding signal appears in the records for this sequence with MaxL homodimer (Homo sapiens, UniProt P61244 1-160)? `CATGCACA`
0.0961

Notebook entry, MaxL homodimer (Homo sapiens, UniProt P61244 1-160) assay: binding signal of `CGCACGCA` = ?
0.0894

Recall the recorded binding signal for `AACGTGCG` with MaxL homodimer (Homo sapiens, UniProt P61244 1-160) and state it.
0.108

Report binding signal for `CGCCGAAA` tested on MaxL homodimer (Homo sapiens, UniProt P61244 1-160).
0.0723

What is its binding signal for MaxL homodimer (Homo sapiens, UniProt P61244 1-160)? Entry: `GCATTAGC`
0.0727

Give binding signal (MaxL homodimer (Homo sapiens, UniProt P61244 1-160)) of the following sequence: `AGGCATGG`
0.0974

Return binding signal measured with MaxL homodimer (Homo sapiens, UniProt P61244 1-160) given this sequence: `AGCACACA`
0.0906

Find the measured binding signal: item `AGATTTGC` , target or system MaxL homodimer (Homo sapiens, UniProt P61244 1-160).
0.0766

Form: Entry = `ATGGCAGG` | System = MaxL homodimer (Homo sapiens, UniProt P61244 1-160) | binding signal = ____
0.0815

Item `AACGTCCG` with MaxL homodimer (Homo sapiens, UniProt P61244 1-160) - binding signal?
0.0721

Return binding signal measured with MaxL homodimer (Homo sapiens, UniProt P61244 1-160) given this sequence: `CCCATACG`
0.0864

MaxL homodimer (Homo sapiens, UniProt P61244 1-160) / binding signal / `CATGCACG` : value?
0.101

Lab request: please report binding signal under test system MaxL homodimer (Homo sapiens, UniProt P61244 1-160) for `CCTGCACG`
0.0845

Lab note: need binding signal with MaxL homodimer (Homo sapiens, UniProt P61244 1-160) for entry `GTCGCTGA` , please look it up.
0.0755

Form field - read-out: binding signal; system: MaxL homodimer (Homo sapiens, UniProt P61244 1-160); submitted item: `AGGCATTC`
0.0762

Form entry - test system: MaxL homodimer (Homo sapiens, UniProt P61244 1-160); read-out: binding signal; sequence: `ACCGTCCA`
0.0727

Recall the recorded binding signal for `AGCACACG` with MaxL homodimer (Homo sapiens, UniProt P61244 1-160) and state it.
0.0942

Please state recorded binding signal (tested on MaxL homodimer (Homo sapiens, UniProt P61244 1-160)) of `TCCCTCCA`
0.075

Write down the reported binding signal of `AATCGTTA` , test system: MaxL homodimer (Homo sapiens, UniProt P61244 1-160).
0.0761

API: value(readout=binding signal, system=MaxL homodimer (Homo sapiens, UniProt P61244 1-160)) for record `CTTAGGCA`
0.0777

Tell me reported binding signal for `AAGGTGCG` , tested with MaxL homodimer (Homo sapiens, UniProt P61244 1-160).
0.077

State its binding signal on MaxL homodimer (Homo sapiens, UniProt P61244 1-160): `AATGCACC`
0.0777

// map `AGCGTGGA` to recorded binding signal (system: MaxL homodimer (Homo sapiens, UniProt P61244 1-160))
0.106

Please state recorded binding signal (tested on MaxL homodimer (Homo sapiens, UniProt P61244 1-160)) of `GAGTGGCC`
0.073

Lab note: need binding signal for `AGCACGCC` on MaxL homodimer (Homo sapiens, UniProt P61244 1-160), anyone have it?
0.0846

Value wanted: binding signal (MaxL homodimer (Homo sapiens, UniProt P61244 1-160)) of entry `CCCGTGGA`
0.0823

Can you look up binding signal on MaxL homodimer (Homo sapiens, UniProt P61244 1-160) for `CAGCAATG` ?
0.082

Give MaxL homodimer (Homo sapiens, UniProt P61244 1-160) binding signal for `CGCACGCC`
0.0878

Recall the recorded binding signal for `CCTGCGCA` with MaxL homodimer (Homo sapiens, UniProt P61244 1-160) and state it.
0.0738

Find binding signal (MaxL homodimer (Homo sapiens, UniProt P61244 1-160)) for the entry `AGTGTGGC`
0.0795

Item `CAGGTGCC` with MaxL homodimer (Homo sapiens, UniProt P61244 1-160) - binding signal?
0.0785
